System: 565726-208-R1-J5-PDC complex spheroids, growth inhibition
Assay: Anticancer human tumor 565726-208-R1-J5-PDC patient-derived pancreatic adenocarcinoma cell line growth inhibition [RAS]
Settings: second compound 0.003 µM; first compound 10 µM; stronger effect = lower value
From the text: RAS pathway inhibitors in Combinations in Complex Spheroids A high-throughput screen of multi-cell type tumor spheroids was designed to identify active combinations of RAS pathway inhibitors and targeted small molecules. Complex spheroids include a stromal component modeled by human endothelial cells (HUVEC) and fibroblasts modeled by human mesenchymal stem cells (MSCs). […] Compounds. […] If the clinical Cmax for an agent had not been determined, the highest concentration tested was 10 microM. […]
For each entry below, report its viability, T/C value.
Answers are plain numbers, in %.

Below: 3 compounds and their reported viability, T/C.
{"columns": ["compound", "assayedSystem", "viability, T/C / %"],
 "data": [
  ["Cc1nc(N2CCC3(CC2)COC(C)C3N)c(CO)nc1Sc1ccnc(N)c1Cl (centres undefined) + CCn1c(-c2cccnc2C(C)OC)c2c3cc(ccc31)N1CCOC(CC(NC(=O)C(C(C)C)N(C)C(=O)C3(F)CCN(C(=O)C#CC(C)(C)N(C)C)CC3)C(=O)N3CCCC(N3)C(=O)OCC(C)(C)C2)C1", "565726-208-R1-J5-PDC complex spheroids, growth inhibition", 70.6],
  ["CCC(CC)c1cc(NC2CCC(N)C2)n2nccc2n1 (centres undefined) + CCn1c(-c2cccnc2C(C)OC)c2c3cc(ccc31)N1CCOC(CC(NC(=O)C(C(C)C)N(C)C(=O)C3(F)CCN(C(=O)C#CC(C)(C)N(C)C)CC3)C(=O)N3CCCC(N3)C(=O)OCC(C)(C)C2)C1", "565726-208-R1-J5-PDC complex spheroids, growth inhibition", 0.9],
  ["CCC(CC)c1cc(NC2CCC(N)C2)n2nccc2n1 (centres undefined) + CCn1c(-c2cc(N3CCN(C)CC3)cnc2C(C)OC)c2c3cc(ccc31)-c1csc(n1)CC(NC(=O)C1CC1C)C(=O)N1CCCC(N1)C(=O)OCC(C)(C)C2", "565726-208-R1-J5-PDC complex spheroids, growth inhibition", 1.59]
]}

--- query ---
Ask: Return reported viability, T/C; argument: NC1c2ccccc2OC12CCN(c1cnc3c(N4CCCc5ncccc54)n[nH]c3n1)CC2 (centres undefined) + CCn1c(-c2cc(N3CCN(C)CC3)cnc2C(C)OC)c2c3cc(ccc31)-c1csc(n1)CC(NC(=O)C1CC1C)C(=O)N1CCCC(N1)C(=O)OCC(C)(C)C2
Reply: 16.4

----------
system: 565726-208-R1-J5-PDC complex spheroids, growth inhibition; experiment: Anticancer human tumor 565726-208-R1-J5-PDC cell line growth inhibition [RAS]; conditions: second compound 0.0949 µM; first compound 0.00949 µM; stronger effect = lower value;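 further: spheroids exposed to compounds for seven days before readout; 100% = DMSO vehicle control viability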
Hi there, I'd appreciate the recorded viability, T/C for every entry that follows.
Give bare numbers, in %.

A selection of reference data follows.
{"columns": ["molecule", "viability, T/C, %"],
 "data": [
  ["CCc1c2c(nc3ccc(O)cc13)-c1cc3c(c(=O)n1C2)COC(=O)[C@]3(O)CC + CCn1c(-c2cc(N3CCN(C)CC3)cnc2C(C)OC)c2c3cc(ccc31)-c1csc(n1)CC(NC(=O)C1CC1C)C(=O)N1CCCC(N1)C(=O)OCC(C)(C)C2", 18.6],
  ["CCc1c2c(nc3ccc(O)cc13)-c1cc3c(c(=O)n1C2)COC(=O)[C@]3(O)CC + CCn1c(-c2cccnc2C(C)OC)c2c3cc(ccc31)N1CCOC(CC(NC(=O)C(C(C)C)N(C)C(=O)C3(F)CCN(C(=O)C#CC(C)(C)N(C)C)CC3)C(=O)N3CCCC(N3)C(=O)OCC(C)(C)C2)C1", 20.5],
  ["CC1(C)CCC(Nc2ncc(C(F)(F)F)c(-c3c[nH]c4c(P(C)(C)=O)c(C#N)ccc34)n2)CN1 (centres undefined) + CCn1c(-c2cccnc2C(C)OC)c2c3cc(ccc31)N1CCOC(CC(NC(=O)C(C(C)C)N(C)C(=O)C3(F)CCN(C(=O)C#CC(C)(C)N(C)C)CC3)C(=O)N3CCCC(N3)C(=O)OCC(C)(C)C2)C1", 30]
]}

Here is the next item to consider.
Ask: I would be grateful if you could share the reported viability, T/C for CC1(C)CCC(Nc2ncc(C(F)(F)F)c(-c3c[nH]c4c(P(C)(C)=O)c(C#N)ccc34)n2)CN1 (centres undefined) + CCn1c(-c2cc(N3CCN(C)CC3)cnc2C(C)OC)c2c3cc(ccc31)-c1csc(n1)CC(NC(=O)C1CC1C)C(=O)N1CCCC(N1)C(=O)OCC(C)(C)C2 .
Reply: 26.1

----------
tested on: 565726-208-R1-J5-PDC complex spheroids, growth inhibition; assay: Anticancer human tumor 565726-208-R1-J5-PDC cell line growth inhibition [RAS]; conditions: second compound 0.3 µM; first compound 3.16 µM; active = viability on the fitted dose curve at most 10% of control; inactive = the rest;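 further: spheroids exposed to compounds for seven days before readout; 100% = DMSO vehicle control viability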
Outcome (select one): active, inactive

Ask: Per the assay record, what outcome was assigned to CC1(O)CCCC1n1c(=O)c(C(F)F)cc2cnc(NC3CCN(S(C)(=O)=O)CC3)nc21 (stereo not given) + CCn1c(-c2cccnc2C(C)OC)c2c3cc(ccc31)N1CCOC(CC(NC(=O)C(C(C)C)N(C)C(=O)C3(F)CCN(C(=O)C#CC(C)(C)N(C)C)CC3)C(=O)N3CCCC(N3)C(=O)OCC(C)(C)C2)C1 ?
Reply: inactive

Ask: Cool, now Cc1nc(N2CCC3(CC2)COC(C)C3N)c(CO)nc1Sc1ccnc(N)c1Cl (stereo not given) + CCn1c(-c2cccnc2C(C)OC)c2c3cc(ccc31)N1CCOC(CC(NC(=O)C(C(C)C)N(C)C(=O)C3(F)CCN(C(=O)C#CC(C)(C)N(C)C)CC3)C(=O)N3CCCC(N3)C(=O)OCC(C)(C)C2)C1
Reply: inactive

Ask: What would you report for C[C@@H](NC(=O)c1ncnc(N)c1Cl)c1ncc(C(=O)Nc2cc(C(F)(F)F)c(Cl)cn2)s1 + CCn1c(-c2cc(N3CCN(C)CC3)cnc2C(C)OC)c2c3cc(ccc31)-c1csc(n1)CC(NC(=O)C1CC1C)C(=O)N1CCCC(N1)C(=O)OCC(C)(C)C2 ?
Reply: inactive

Ask: And what about the compound CC(Nc1ccc2c(c1)OCCn1cc(N3C(=O)OCC3C(F)F)nc1-2)C(N)=O (stereo not given) + CCn1c(-c2cccnc2C(C)OC)c2c3cc(ccc31)N1CCOC(CC(NC(=O)C(C(C)C)N(C)C(=O)C3(F)CCN(C(=O)C#CC(C)(C)N(C)C)CC3)C(=O)N3CCCC(N3)C(=O)OCC(C)(C)C2)C1 ?
Reply: inactive

Ask: Another: Cc1nc(N2CCC3(CC2)COC(C)C3N)c(CO)nc1Sc1ccnc(N)c1Cl (stereo not given) + CCn1c(-c2cc(N3CCN(C)CC3)cnc2C(C)OC)c2c3cc(ccc31)-c1csc(n1)CC(NC(=O)C1CC1C)C(=O)N1CCCC(N1)C(=O)OCC(C)(C)C2
Reply: inactive

Ask: Again, but for NC1c2ccccc2OC12CCN(c1cnc3c(N4CCCc5ncccc54)n[nH]c3n1)CC2 (stereo not given) + CCn1c(-c2cc(N3CCN(C)CC3)cnc2C(C)OC)c2c3cc(ccc31)-c1csc(n1)CC(NC(=O)C1CC1C)C(=O)N1CCCC(N1)C(=O)OCC(C)(C)C2
Reply: inactive

Ask: Proceed to CCC(CC)c1cc(NC2CCC(N)C2)n2nccc2n1 (stereo not given) + CCn1c(-c2cc(N3CCN(C)CC3)cnc2C(C)OC)c2c3cc(ccc31)-c1csc(n1)CC(NC(=O)C1CC1C)C(=O)N1CCCC(N1)C(=O)OCC(C)(C)C2
Reply: active

Ask: Again, but for CC(=O)OC12COC1CC(O)C1(C)C(=O)C(O)C3=C(C)C(OC(=O)C(O)C(NC(=O)OC(C)(C)C)c4ccccc4)CC(O)(C(OC(=O)c4ccccc4)C21)C3(C)C (stereo not given) + CCn1c(-c2cccnc2C(C)OC)c2c3cc(ccc31)N1CCOC(CC(NC(=O)C(C(C)C)N(C)C(=O)C3(F)CCN(C(=O)C#CC(C)(C)N(C)C)CC3)C(=O)N3CCCC(N3)C(=O)OCC(C)(C)C2)C1
Reply: inactive

Ask: Now consider CC(C)NCC(C(=O)N1CCN(c2ncnc3c2C(C)CC3O)CC1)c1ccc(Cl)cc1 (stereo not given) + CCn1c(-c2cccnc2C(C)OC)c2c3cc(ccc31)N1CCOC(CC(NC(=O)C(C(C)C)N(C)C(=O)C3(F)CCN(C(=O)C#CC(C)(C)N(C)C)CC3)C(=O)N3CCCC(N3)C(=O)OCC(C)(C)C2)C1 .
Reply: inactive

Ask: Same read-out for CC1(O)CCCC1n1c(=O)c(C(F)F)cc2cnc(NC3CCN(S(C)(=O)=O)CC3)nc21 (stereo not given) + CCn1c(-c2cc(N3CCN(C)CC3)cnc2C(C)OC)c2c3cc(ccc31)-c1csc(n1)CC(NC(=O)C1CC1C)C(=O)N1CCCC(N1)C(=O)OCC(C)(C)C2 ?
Reply: inactive

Values compiled from PubChem BioAssay AID2060899.
